# assay_text: Half life in Sprague-Dawley rat at 10 mg/kg, iv after 0.083 to 24 hrs by LC-MS/MS analysis
# Format: ADME, organism-based
# condition_description: in vivo, time 0.083-24 hrs
endpoint: half-life (h)
Numbers only here, please. The scale is h.

Query :: Any idea what its half-life is? The molecule is O=C(/C=C/c1cc(Cl)ccc1-n1cnnn1)N[C@@H](CC(=O)N1CCN(c2ccccc2)CC1)C(=O)Nc1ccc(C(=O)O)cc1
Result :: 1.26

----------
# experimental_target: Plasma kallikrein (Homo sapiens, UniProt P03952)
# Sequence (P03952 20-390 limits assumed): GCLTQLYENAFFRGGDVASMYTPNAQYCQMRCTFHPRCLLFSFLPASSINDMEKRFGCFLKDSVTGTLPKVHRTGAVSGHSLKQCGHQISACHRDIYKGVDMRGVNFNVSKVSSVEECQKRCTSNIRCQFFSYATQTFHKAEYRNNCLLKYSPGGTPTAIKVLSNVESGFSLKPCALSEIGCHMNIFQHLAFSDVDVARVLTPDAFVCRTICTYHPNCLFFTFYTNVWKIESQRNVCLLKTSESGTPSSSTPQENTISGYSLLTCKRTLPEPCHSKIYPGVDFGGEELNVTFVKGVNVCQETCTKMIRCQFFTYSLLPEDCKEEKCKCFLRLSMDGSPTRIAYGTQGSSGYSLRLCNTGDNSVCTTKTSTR
# Sequence (P03952 391-638 limits assumed): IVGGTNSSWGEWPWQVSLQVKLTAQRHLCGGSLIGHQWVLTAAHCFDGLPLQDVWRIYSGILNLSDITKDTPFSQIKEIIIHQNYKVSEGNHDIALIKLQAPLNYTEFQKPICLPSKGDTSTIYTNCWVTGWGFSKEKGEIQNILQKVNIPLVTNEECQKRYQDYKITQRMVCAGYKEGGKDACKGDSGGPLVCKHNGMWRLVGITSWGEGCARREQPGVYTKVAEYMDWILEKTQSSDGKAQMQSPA
# assay_text: Inhibition of plasma kallikrein (unknown origin) assessed as chromogenic substrate hydrolysis using CS-31(02) as substrate incubated for 1 hr by spectrophotometer based microplate reader method
endpoint: IC50 (nM)
Numbers only here, please. The scale is nM.

Reference set (2 entries):
smiles: CCN1CCN(C(=O)C[C@H](NC(=O)/C=C/c2cc(Cl)ccc2-n2cnnn2)C(=O)Nc2ccc(C(=O)O)cc2)CC1
IC50 / nM: 2700
//
smiles: CCCCN1CCN(C(=O)C[C@H](NC(=O)/C=C/c2cc(Cl)ccc2-n2cnnn2)C(=O)Nc2ccc(C(=O)O)cc2)CC1
IC50 / nM: 510

Query :: Give the reported IC50 for O=C(/C=C/c1cc(Cl)ccc1-n1cnnn1)N[C@@H](CC(=O)N1CCN(c2ccccc2)CC1)C(=O)Nc1ccc(C(=O)O)cc1 (system: Plasma kallikrein (Homo sapiens, UniProt P03952)).
Result :: 27900

Query :: Give the reported IC50 for O=C(/C=C/c1cc(Cl)ccc1-n1cnnn1)N[C@@H](CCC(=O)N1CCSCC1)C(=O)Nc1ccc(C(=O)O)cc1 (system: Plasma kallikrein (Homo sapiens, UniProt P03952)).
Result :: 6700

----------
Readings of IC50 for the listed compounds
# experimental_target: Plasma kallikrein (Homo sapiens, UniProt P03952)
# assay_text: Inhibition of plasma kallikrein (unknown origin) assessed as chromogenic substrate hydrolysis using CS-31(02) as substrate incubated for 1 hr by spectrophotometer based microplate reader method
Numbers only here, please. The scale is nM.

smiles: O=C(/C=C/c1cc(Cl)ccc1-n1cnnn1)N[C@@H](CC(=O)N1CCN(Cc2ccccc2)CC1)C(=O)Nc1ccc(C(=O)O)cc1
experimental_target: Plasma kallikrein (Homo sapiens, UniProt P03952)
endpoint: IC50
display_unit: nM
measured_value: 1060

Query :: Any idea what its IC50 is? The compound is CCCCN1CCN(C(=O)CC[C@H](NC(=O)/C=C/c2cc(Cl)ccc2-n2cnnn2)C(=O)Nc2ccc(C(=O)O)cc2)CC1
Result :: 2700

Query :: Any idea what its IC50 is? The compound is CC(C)N1CCN(C(=O)C[C@H](NC(=O)/C=C/c2cc(Cl)ccc2-n2cnnn2)C(=O)Nc2ccc(C(=O)O)cc2)CC1
Result :: 490
